Could you please report measured pIC50 for the items listed next?
Test system: human glioma cell U87
Protocol Text: MTT anticancer assay, U87
Format: cell-based
Test Context: 48 h exposure, mean ± SD, dash = footnote d 'None'
The read-out pIC50 is expressed as -log10 of concentration in moles per litre.

Ask | Value lookup for pIC50; key = "COc1cc(OC)c2c(=O)c(OCCCCN3CCN(C(=O)c4cc([N+](=O)[O-])cc([N+](=O)[O-])c4)CC3)c(-c3cc(OC)c(OC)c(OC)c3)oc2c1"
Reply | 5.09

Ask | Also check "COc1cc(OC)c2c(=O)c(OCCCCN3CCN(C(=O)c4c(F)cccc4Cl)CC3)c(-c3cc(OC)c(OC)c(OC)c3)oc2c1"
Reply | 4.59

Ask | "COc1cc(OC)c2c(=O)c(OCCCCN3CCN(C(=O)c4ccc([N+](=O)[O-])cc4)CC3)c(-c3cc(OC)c(OC)c(OC)c3)oc2c1" , same question.
Reply | 4.67

Ask | Same lookup for "COc1cc(OC)c2c(=O)c(OCCCCN3CCN(C(=O)c4ccc(F)cc4F)CC3)c(-c3cc(OC)c(OC)c(OC)c3)oc2c1" , please.
Reply | 4.78

###

System: human glioma cell U87
Protocol Text: MTT anticancer assay, U87
Format: cell-based
Test Context: 48 h exposure, mean ± SD, dash = footnote d 'None'
So I've got a bunch of molecules here, and I need their pIC50 values.
The value called pIC50 is obtained by taking minus log10 of the concentration in mol/L.

Ask | Report pIC50 for "COc1cc(OC)c2c(=O)c(OCCCCN3CCN(C(=O)c4cc(Cl)ccc4[N+](=O)[O-])CC3)c(-c3cc(OC)c(OC)c(OC)c3)oc2c1" please.
Reply | 4.79

Ask | Also "COc1cc(OC)c2c(=O)c(OCCCCN3CCN(C(=O)c4ccc(C(F)(F)F)cc4)CC3)c(-c3cc(OC)c(OC)c(OC)c3)oc2c1" ?
Reply | 4.74

Ask | Param item: "COc1cc(OC)c2c(=O)c(OCCCCN3CCN(C(=O)c4ccccc4)CC3)c(-c3cc(OC)c(OC)c(OC)c3)oc2c1"
Reply | 4.69

Ask | What would you report for "COc1cc(OC)c2c(=O)c(OCCCCN3CCN(C(=O)c4ccc(Cl)cc4)CC3)c(-c3cc(OC)c(OC)c(OC)c3)oc2c1" ?
Reply | 4.59

###

Target Of Assay: telomerase (Homo sapiens, UniProt O14746)
Construct: endogenous in cells
Sequence (O14746 whole entry): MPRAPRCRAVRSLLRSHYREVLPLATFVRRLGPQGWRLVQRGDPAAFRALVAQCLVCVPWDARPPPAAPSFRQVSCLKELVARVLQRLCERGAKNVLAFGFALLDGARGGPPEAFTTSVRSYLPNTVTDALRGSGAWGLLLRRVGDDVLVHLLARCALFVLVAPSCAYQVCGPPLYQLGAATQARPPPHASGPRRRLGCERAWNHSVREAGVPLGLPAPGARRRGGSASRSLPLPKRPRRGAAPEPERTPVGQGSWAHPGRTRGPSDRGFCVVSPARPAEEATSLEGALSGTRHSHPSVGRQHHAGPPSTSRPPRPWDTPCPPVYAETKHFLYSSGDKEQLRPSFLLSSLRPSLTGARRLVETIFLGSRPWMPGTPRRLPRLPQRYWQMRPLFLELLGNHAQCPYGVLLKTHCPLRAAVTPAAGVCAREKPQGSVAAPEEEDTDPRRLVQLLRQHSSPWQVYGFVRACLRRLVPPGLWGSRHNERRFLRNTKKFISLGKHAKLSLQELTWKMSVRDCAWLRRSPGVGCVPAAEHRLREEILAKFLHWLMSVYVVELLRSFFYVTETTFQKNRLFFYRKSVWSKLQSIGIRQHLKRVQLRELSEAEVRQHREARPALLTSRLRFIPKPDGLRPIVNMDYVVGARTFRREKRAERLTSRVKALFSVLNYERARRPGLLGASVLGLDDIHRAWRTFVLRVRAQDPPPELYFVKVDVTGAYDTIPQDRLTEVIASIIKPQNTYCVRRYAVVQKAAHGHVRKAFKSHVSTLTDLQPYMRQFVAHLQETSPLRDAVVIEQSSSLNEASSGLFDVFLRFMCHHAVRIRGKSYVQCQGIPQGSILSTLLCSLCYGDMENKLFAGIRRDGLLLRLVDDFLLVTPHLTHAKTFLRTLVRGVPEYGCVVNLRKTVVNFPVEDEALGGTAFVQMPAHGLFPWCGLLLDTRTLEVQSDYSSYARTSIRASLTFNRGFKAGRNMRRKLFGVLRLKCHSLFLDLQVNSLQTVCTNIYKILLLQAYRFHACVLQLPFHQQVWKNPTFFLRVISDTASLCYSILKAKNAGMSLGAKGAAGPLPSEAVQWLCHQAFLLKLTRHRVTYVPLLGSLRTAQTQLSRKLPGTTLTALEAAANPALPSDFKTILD
Sequence (O60832 whole entry partner): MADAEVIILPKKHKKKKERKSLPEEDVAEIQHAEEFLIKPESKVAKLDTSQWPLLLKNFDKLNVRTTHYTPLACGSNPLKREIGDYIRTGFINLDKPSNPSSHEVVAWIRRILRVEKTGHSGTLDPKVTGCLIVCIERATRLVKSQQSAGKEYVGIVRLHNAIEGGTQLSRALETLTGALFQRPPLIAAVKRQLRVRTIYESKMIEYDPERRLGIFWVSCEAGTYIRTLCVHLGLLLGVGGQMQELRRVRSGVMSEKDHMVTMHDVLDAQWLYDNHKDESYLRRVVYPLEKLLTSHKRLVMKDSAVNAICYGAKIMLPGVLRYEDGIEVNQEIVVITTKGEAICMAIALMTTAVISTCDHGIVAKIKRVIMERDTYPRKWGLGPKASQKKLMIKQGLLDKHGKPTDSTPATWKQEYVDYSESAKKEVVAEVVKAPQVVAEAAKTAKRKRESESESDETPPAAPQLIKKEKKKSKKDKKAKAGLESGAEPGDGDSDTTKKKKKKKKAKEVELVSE
Sequence (Q9NX24 whole entry partner): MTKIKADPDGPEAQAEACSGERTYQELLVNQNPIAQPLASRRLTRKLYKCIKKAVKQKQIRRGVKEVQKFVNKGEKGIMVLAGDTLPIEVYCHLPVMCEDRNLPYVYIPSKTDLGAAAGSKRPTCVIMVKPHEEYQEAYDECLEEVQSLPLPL
Sequence (Q9NPE3 whole entry partner): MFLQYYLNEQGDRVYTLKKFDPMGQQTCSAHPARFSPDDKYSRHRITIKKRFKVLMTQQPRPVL
Sequence (Q9NY12 whole entry partner): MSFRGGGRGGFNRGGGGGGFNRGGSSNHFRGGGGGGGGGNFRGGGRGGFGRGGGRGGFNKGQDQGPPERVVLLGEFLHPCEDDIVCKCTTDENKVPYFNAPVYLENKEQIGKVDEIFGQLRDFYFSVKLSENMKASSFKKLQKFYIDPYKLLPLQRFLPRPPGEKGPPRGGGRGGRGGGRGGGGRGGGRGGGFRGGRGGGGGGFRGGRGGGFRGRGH
Protocol Text: Telomerase activity assay (TRAP-PCR-ELISA)
Test Context: SGC-7901 cells extracts, 24-h treatment, mean ± SD
Quantity Measured: pIC50
For clarity, pIC50 is expressed as the negative log10 of concentration in mol/L.

Ask | Look up pIC50: "COc1cc(OC)c2c(=O)c(OCCCCN3CCN(C(=O)c4ccc(F)cc4F)CC3)c(-c3cc(OC)c(OC)c(OC)c3)oc2c1"
Reply | 4.95

Ask | Further, for "COc1cc(OC)c2c(=O)c(OCCCCN3CCN(C(=O)c4ccccc4[N+](=O)[O-])CC3)c(-c3cc(OC)c(OC)c(OC)c3)oc2c1" ?
Reply | 4.88

Ask | Also, "COc1cc(OC)c2c(=O)c(OCCCCN3CCN(C(=O)c4cc([N+](=O)[O-])cc([N+](=O)[O-])c4)CC3)c(-c3cc(OC)c(OC)c(OC)c3)oc2c1" please.
Reply | 5.84

Ask | Similarly, "COc1cc(OC)c2c(=O)c(OCCCCN3CCN(C(=O)c4ccncc4)CC3)c(-c3cc(OC)c(OC)c(OC)c3)oc2c1" ?
Reply | 6.05

###

Test system: human cervical cancer cell Hela
Protocol Text: MTT anticancer assay, Hela
Format: cell-based
Test Context: MTT, 48 h exposure, mean ± SD, read-out: IC50 Hela
Quantity Measured: pIC50
# pIC50: negative log10 of molar concentration; output just the value

Ask | What does the record list as pIC50 for COc1cc(OC)c2c(=O)c(OCCCCN3CCN(C(=O)c4ccc(C(F)(F)F)cc4)CC3)c(-c3cc(OC)c(OC)c(OC)c3)oc2c1 [Compound 5f] ?
Reply | 4.84

Ask | Cool, now COc1cc(OC)c2c(=O)c(OCCCCN3CCN(C(=O)c4ccccc4[N+](=O)[O-])CC3)c(-c3cc(OC)c(OC)c(OC)c3)oc2c1 [Compound 5e]
Reply | 4.60

Ask | Now give it for COc1cc(OC)c2c(=O)c(OCCCCN3CCN(C(=O)c4ccc(F)cc4F)CC3)c(-c3cc(OC)c(OC)c(OC)c3)oc2c1 [Compound 5a] too.
Reply | 4.59

###

System: human cervical cancer cell Hela
Protocol Text: MTT anticancer assay, Hela
Type: cell-based
Test Context: MTT, 48 h exposure, mean ± SD, read-out: IC50 Hela
Quantity Measured: pIC50
For clarity, pIC50 is expressed as the negative log10 of concentration in mol/L.

Ask | For the molecule COc1cc(OC)c2c(=O)c(OCCCCN3CCN(C(=O)c4c(F)cccc4Cl)CC3)c(-c3cc(OC)c(OC)c(OC)c3)oc2c1 [Compound 5c] , what pIC50 is on record?
Reply | 5.01

Ask | Next: COc1cc(OC)c2c(=O)c(OCCCCN3CCN(C(=O)c4ccc([N+](=O)[O-])cc4)CC3)c(-c3cc(OC)c(OC)c(OC)c3)oc2c1 [Compound 5g]
Reply | 4.77

Ask | Similarly, COc1cc(OC)c2c(=O)c(OCCCCN3CCN(C(=O)c4ccccc4)CC3)c(-c3cc(OC)c(OC)c(OC)c3)oc2c1 [Compound 5j] ?
Reply | 5.08

Cited source: paper PMC6104605
